Entries and their measured TGI follow.
test system: HOP-62 NSCLC; assay: NCI tumour cell line growth inhibition, 48 h
Measurement Label: TGI

>>> experimental_value("COc1cc(C2c3cc4c(cc3OC(C)(N3CCCC3)C2C)OCO4)cc(OC)c1OC (stereo not drawn)")
"66.8 µM"
>>> experimental_value("COc1ccc2c(c1)OC1=C(C(=O)OC1)C2c1cc(OC)c2c(c1)OCCO2 (stereo not drawn)")
"> 100 µM"
>>> experimental_value("O=C(O)c1ccc(CN2CCC(CN[C@@H]3C[C@H]3c3ccccc3)CC2)cc1")
"> 100 µM"
>>> experimental_value("O=S(=O)(C1=CC(S(=O)(=O)c2ccccc2)CN(Cc2ccccc2)C1c1cccc2ccccc12)c1ccccc1 (stereo not drawn)")
"> 69 µM"
>>> experimental_value("CCOC(=O)c1sc(=S)n(-c2ccc(Cl)cc2)c1-n1cc(-c2ccccc2)c(C#N)c1N")
"14.7 µM"
>>> experimental_value("O=C1/C(=C\\c2ccc([N+](=O)[O-])cc2)N(S(=O)(=O)c2ccccc2)c2ncccc21")
"46.2 µM"
>>> experimental_value("Cc1cc(C)nc(NS(=O)(=O)c2ccc(Nc3c4ccccc4nc4ccc(C(=O)Nc5ccc(S(N)(=O)=O)cc5)cc34)cc2)n1")
"> 100 µM"
>>> experimental_value("CCCC1(CC(=O)O)OCCc2c1[nH]c1ccccc21 (stereo not drawn)")
"> 100 µM"
>>> experimental_value("COC(=O)c1ccc2[nH]c(O)c(C(=Nc3ccc(N(C)C(=O)CN4CCN(C)CC4)cc3)c3ccc4c(c3)OCO4)c2c1")
"4.53 µM"
>>> experimental_value("CCC1=CCN(c2cc(C)ccn2)OC1c1ccc(OC)cc1 (stereo not drawn)")
"> 100 µM"
>>> experimental_value("CC12C=CC(C)(C3C(=O)C4C(C(=O)C31)C1(C)C=CC4(C)S1=O)S2=O (stereo not drawn)")
"> 100 µM"
>>> experimental_value("OC(CC1CCCCN1)c1ccc2c(c1)oc1ccccc12 (stereo not drawn)")
"> 100 µM"
>>> experimental_value("CCCCCCNCCc1cnc[nH]1")
"> 100 µM"
>>> experimental_value("CCC[CH2][Sn]([CH2]CCC)([O]C(=O)CN)[O]C(=O)CN")
"> 100 µM"
>>> experimental_value("CCCOC(=O)N[C@H]1CCc2c(Cl)c(OC)c(OC)c(OC)c2-c2ccc(SC)c(=O)cc21")
"50.9 µM"
>>> experimental_value("O=C(Oc1ccc[nH]c1=O)c1cc([N+](=O)[O-])cc([N+](=O)[O-])c1")
"> 100 µM"
>>> experimental_value("Cc1cc(N(CC(C)Br)CC(C)Br)ccc1N=Nc1ccccc1C(=O)O (stereo not drawn)")
"22.8 µM"
>>> experimental_value("COC1OC(CS(=O)(=O)O)C(O)C(O)C1O (stereo not drawn)")
"> 100 µM"

====

system: SK-MEL-5 melanoma; assay: NCI tumour cell line growth inhibition, 48 h
Measurement Label: TGI

>>> experimental_value("O=NNc1ccc2ccccc2n1")
"> 100 µM"
>>> experimental_value("O=[N+]([O-])c1ccc(CSc2nncc3[nH]cnc23)cc1")
"> 100 µM"
>>> experimental_value("CCCCCCCCCCCC(=O)OCCOCCOCCOCCOCCOC(=O)CCCCCCCCCCC")
"> 100 µM"
